Target Or Test System: Cytochrome P450 2C9 (Homo sapiens)
Procedure Text: Cytochrome panel assay with activity outcomes; also: % is scaled to controls: 0 for no effect and ±100 for the full control effect
Test Conditions: recombinant CYP, pro-luciferin dealkylation, luminescence, p450-cyp2c9; series mostly up to 57.1 µM
Out of some 16,000 compounds screened, about 4,000 (25%) were called active. Inconclusive results (about 26%) are left out. A selection follows.
Measured Parameter: activity, negative = inhibition

Which activity, negative = inhibition value belongs to CCSCC[C@H](N)C(=O)O ? -1.99% [at 11.4 µM] (inactive)

Which activity, negative = inhibition value belongs to CN1CC[C@@]2(CCCN(C(=O)c3csnn3)C2)C1 ? inactive

Which activity, negative = inhibition value belongs to Oc1ccc2c3c1O[C@@H]1c4[nH]c5c(c4C[C@@]4(O)[C@@H](C2)N(CC2CC2)CC[C@]314)C[C@]1(O)[C@@H]2Cc3ccc(O)c4c3[C@@]1(CCN2CC1CC1)[C@H]5O4 ? inactive

Which activity, negative = inhibition value belongs to COc1ccc2c(c1)CCC1[C@@H]2CCC2(C)[C@@H](NCCCCCCN3C(=O)C=CC3=O)CC[C@@H]12 (stereo not given in full) ? inactive

Which activity, negative = inhibition value belongs to CCN=C=NCCCN(C)C ? -7.95% [at 11.4 µM] (inactive)

Which activity, negative = inhibition value belongs to CC(=O)O[C@H]1C[C@@H](O[C@@H]2[C@H](C)O[C@H](O[C@@H]3[C@H](C)O[C@H](O[C@@H]4CC[C@@]5(C)[C@@H](CC[C@]6(C)[C@]5(C)C[C@H](O)[C@]5(C)[C@@H](C7=CC(=O)OC7)CC[C@@]56O)C4)C[C@@H]3O)C[C@@H]2O)O[C@@H](C)[C@H]1O[C@H]1O[C@@H](CO)[C@@H](O)[C@@H](O)[C@@H]1O ? inactive

---
Which activity, negative = inhibition value belongs to C/C=C1\C[N@@+]2(C)CC[C@@]34C(=C(C=O)[C@H]1C[C@H]32)Nc1ccccc14 ? inactive

Which activity, negative = inhibition value belongs to C[C@]12CCC3c4ccc(OCC(=O)O)cc4CCC3C1CCC2=O (stereo not given in full) ? -4.6% [at 11.4 µM] (inactive)

Which activity, negative = inhibition value belongs to CC(C)CNCCc1ccccn1 ? -0.994% [at 11.4 µM] (inactive)

Which activity, negative = inhibition value belongs to O=C(Oc1ccc(S(=O)(=O)F)cc1F)c1ccccc1Cl ? -12.2% [at 11.4 µM] (inactive)
